PROCEDURE_DETAILS: physchem
EXPERIMENTAL_PARAMETERS: organic solvent or mixture
EXPERIMENTAL_ENDPOINT: solubility

Which solubility is reported for this compound? CC(=O)O[C@H]1C(=O)[C@@]2(C)[C@H]([C@H](OC(=O)c3ccccc3)[C@]3(O)C[C@H](OC(=O)[C@H](O)[C@@H](NC(=O)c4ccccc4)c4ccccc4)C(C)=C1C3(C)C)[C@]1(OC(C)=O)CO[C@@H]1C[C@@H]2O (relative stereo)
≤ 150 mg/mL
